# reported pIC50; entries follow
target: MBP-TbtD; test: fluorescence polarisation
Just the number, please; pIC50 means minus log10 of the concentration in mol/L.

1. MDLNDLPMAVFELADSGVAVESLTAGHGMTEVGASCNCFCYICCSCSSA [TbtA D(−26)A]
5.22
2. MDLNDLPMDVFELADSGVAVESLTAGHGATEVGASCNCFCYICCSCSSA [TbtA M(−6)A]
6.31
3. MDLNDLPMDVFELADSGVAVESATAGHGMTEVGASCNCFCYICCSCSSA [TbtA L(−12)A]
5.48

I would be grateful if you could share the reported pIC50 for MDLNDLPMDVFELADSGVAVESLAAGHGMTEVGASCNCFCYICCSCSSA [TbtA T(−11)A] .
6.35

Now the same for MDLADLPMDVFELADSGVAVESLTAGHGMTEVGASCNCFCYICCSCSSA [TbtA N(−31)A]
5.95
